experiment: Blood concentrations and pharmacokinetics after 1 mg/kg i.v. in mice; type: in vivo, mouse; conditions: mouse, whole blood, iv, 1 mg/kg, mouse blood, mean, read-out: AUC0-inf, Mean S.D.
measured_metric: AUC0-inf (ng·h/mL)
One number for each entry, in ng·h/mL.

Q. Entry C=CCn1nc(C)c2c(C(C)C)cc(NNC(=O)Nc3cc(Cl)nc(Cl)c3)nc21 [Compound 1] has what AUC0-inf?
A. 142

* * *

test: Blood concentrations and pharmacokinetics after 1 mg/kg i.v. in mice; assay type: in vivo, mouse; details: mouse, in vivo, iv, 1 mg/kg, mouse blood, mean, read-out: Terminal half-life, Mean S.D. (converted)
measured_metric: half-life

Q. Entry Cc1nn(C)c2nc(NNC(=O)Nc3cc(Cl)nc(Cl)c3)cc(C(C)C)c12 has what half-life?
A. 9.45 h
